Provenance of the data: paper PMC5727127

- Target Desc: 3TD of SETDB1, Y268A mutant, as used in ITC (UniProt Q15047 190-410, Y268A)
- Protocol: ITC
Where no end group is shown, it is not given here.
Value Kind: Kd (µM)

[P] KQTARK(Me2)STGGK(Ac)APRKQ [H3K9me2/K14ac peptide in solution (ITC; crystal with W358A), limits not stated]
[Q] KQTARK(Me)STGGK(Ac)APRKQ [H3K9me1/K14ac peptide in solution (ITC)]
[R] KQTARK(Me3)STGGK(Ac)APRKQ [H3K9me3/K14ac peptide in solution (ITC; crystals)]
INPUT: Rank the listed binders by Kd, largest first. Answer by listing the labels in the requested order.
OUTPUT: R, Q, P
